assay: soluble on expression in E. coli; label from the status in PepcDB or PDB records

>  <SEQUENCE_CODE>
MAPTRAVIPDDFELPVDAFDIPICYDGDLSGVVIPEGLVRDRVRRLAKDIHAEIGNKPIALLCVLKGSYKFFTALVEELTNARSSCPEPMTVDFIRVKSYEDQMSTGQIQIMGLSNLDELKGKSVLVVDDISDTGRTLAKLLSTLHETGVEKTWTALLLSKRVKRVVDVPEDFVAFEIPDKFIVGYGLDYNQKFRDLGHICVMSPAGIEKYKSE

>  <soluble on expression in E. coli>
not soluble

$$$$
>  <SEQUENCE_CODE>
MLTVTFTVSNTGDRAGAAVPQVYPGFPNTTIDRCVRELKAFRRVELEPGQRQTVTVALTRRDLSYWDILPHPLRSYAVGSILEHHHHHH

>  <soluble on expression in E. coli>
not soluble

$$$$
>  <SEQUENCE_CODE>
MAHHHHHHMNKSTVAGELRNIFSQGTNAYTVELYNAFYRDGTLSLVMEYMDWGNLEELIAICPTIPEPACAYIASQILHALQILHTKANHPTETDKKGRRQIHRDIKPANVMLSKNGVVKLTDFGIAASAETIGVNSFVGTATYMSPERIQGRNYSTPSDIWSVGVLTAQLLLGRFPFSAAEGGFMALLRQVTECCSLSLVDQCACSQKAEDFINHCICRNPDDRSTAIELLQHEWIVQNASNGKDVLTGLLGTVGEPAASSESDNS

>  <soluble on expression in E. coli>
not soluble

$$$$

###

experiment: soluble on expression in E. coli; label from the status in PepcDB or PDB records

>  <SEQUENCE_CODE>
MSLNHVRPWRNIHRRKSRQIMVGNVPVGGDAPISVQTMTNTITADAPATIAQVLRAAEAGADIVRVSVPDEASTRALKEIVAASPVPIVADIHFHYKRAIEAAEAGAACLRINPGNIGDASRVREVIKAARDHGCSMRIGVNAGSLEKHLLDKYGEPCPEAMVESGLDHIKILQDNDFHEFKISVKASDVFLAAAAYQALADATDAPIHLGITEAGGLTAGTVKSAVGLGNLLWSGIGDTLRVSLSADPVEEVKVGYEILKSLGLRHRGVTIISCPSCARQGFDVIKTVAELEDRLAHVTTSMSLSIIGCVVNGPGEALMTDIGFTGGGNGSGMVYLAGKQAHKLGSERMIDEIVSMVESRAAEIEAEKLAAAEAAE

>  <soluble on expression in E. coli>
not soluble

$$$$
>  <SEQUENCE_CODE>
MKKFFRFQLCCICLLVLIVSACKVKRPDSVISESEMENLLYDYHIAKAMGENMPGGENYKKALYVEAVFKKYGTTEEVFDSSMVWYTRNTKILSEIYEKVNKRLKAQQNAINHLIALRDNKPKMSAPGDSINVWAWQRIAQLTEAPLNNKFTFTLPSDTNFKKRDVLLWKMQYNFLSEIPDSTMAPIMAMQIVYENDTVTHSCVKHIFKSGIQNIRLQSDTMNIKEIKGFIFCPLSEESITLLVSDISLTRYHANDSITQISKDSLKTDSIKEKSKNDSIQKKTPKDTIQASSSHQRTNPNDLNRPNNDVRPIKPEQREKEMQIEKEKQQLERQQRTNPRRPLRRQNN

>  <soluble on expression in E. coli>
not soluble

$$$$

###

assay: soluble on expression in E. coli; label from the status in PepcDB or PDB records
REPORTED_PROPERTY: soluble on expression in E. coli

These recorded examples may help you get a feel for the data.
>  <SEQUENCE_CODE>
MVKVIFFDLDDTLVDTSKLAEIARKNAIENMIRHGLPVDFETAYSELIELIKEYGSNFPYHFDYLLRRLDLPYNPKWISAGVIAYHNTKFAYLREVPGARKVLIRLKELGYELGIITDGNPVKQWEKILRLELDDFFEHVIISDFEGVKKPHPKIFKKALKAFNVKPEEALMVGDRLYSDIYGAKRVGMKTVWFRYGKHSERELEYRKYADYEIDNLESLLEVLARESSSNKKVHPPRQQI

>  <REPORTED_VALUE>
soluble

$$$$
>  <SEQUENCE_CODE>
MGSDKIHHHHHHMDNKKPKIITIASIKGGVGKSTSAIIMATLLAKEHKVLLIDMDTQASTTSYFYKEILNQNIDIVKINVYRVLKEKIDINDSIVKIKENLDLIPSYLTLNKFLSESIPLKELRLQNNLEFLKRRYHYVIIDTNPSLDYTLSNALMTSNCIIVPMTAEKWAVESLELLEFHMNNLKIKIPIFLVITRFKKNNTHKQLLQHVESKTGFLGFIHEREDLNKKIAKNEEFDMTKDYINEYKGVLSRFLIVYDEYVK

>  <REPORTED_VALUE>
not soluble

$$$$
>  <SEQUENCE_CODE>
MFKLVGKEAFKVGDMKCIINVEALGTFAYEYSLDVNGKTFNKFKEEQNKRLHSWETTLSGHQWRVVLDKESMEIWANGNNIDTAGEFVDNGTVTHFELGKNPCKIIAQSSGKKKTGVTHTLYVNGEIVPSTVDKPNPSNQPGSS

>  <REPORTED_VALUE>
not soluble

$$$$
>  <SEQUENCE_CODE>
MMYSFEANANAVKISETVSVDTGQGAKIHKFVPKNSKTYSSDLIKTVDLTHIPTGAKARINAKITASVSRAGVLAGVGKLARLGAKFSTRAVPYVGTALLAHDVYETFKEDIQARGYQYDPETDKFAKVSG

>  <REPORTED_VALUE>
not soluble

$$$$

Each of the following entries comes with a recorded value; kindly state soluble on expression in E. coli for each.
1. ATPSRKQRVSTLWISDVHLGTRDCQAEHLSAFLKRYQADKVYLVGDIIDGWKLRGGMYWPQAHTNVIRRLLTMSKRGTEVIYVTGNHDEFLRRYSKLVLGNIQLVDEAEHVTAEGRRLLVIHGDQFDVITRYHRWLAFLGDSAYEFTLTLNRWLNHWRAKYGYGYWSLSAYLKHKVKSAVNFISDFEEAIAHECVKRGLDGVVCGHIHHAEIRQVGGVEYLNCGDWVESCTALIEHLDGTIELFRLADAHLKASQPV
2. VELIGRSEWINQYRRRLQQLSETDIAVWLYGAPGTGRMTGARYLHQFGRNAQGEFVYRELTPDNAPQLNDFIALAQGGTLVLSHPEHLTREQQYHLVQLQSQEHRPFRLIGIGDTSLVELAASNHIIAELYYCFAMTQIACLPLT
3. MSLNEAGIVLLPKSRQLPALSMIDQNGAAVALDGLKDQWTLMFFGYTFCPDICPTTLAQIKQIRSELPTAAVERMRVVLVSVDPNRDTPQQLKEYLSYFDPQYIGLTAPVADIQKLANSVSIPFIPADTSKPNYFVDHSGNLALIGPDGTQRGFIRAPLNNQKLVKQLPRLLERDEGHHHHHH
4. MPERLQVYKCEVCGNIVEVLNGGIGELVCCNQDMKLMSENTVDAAKEKHVPVIEKIDGGYKVKVGAVAHPMEEKHYIQWIELLADDKCYTQFLKPGQAPEAVFLIEAAKVVAREYCNIHGHWKAEN
5. SNAESAAPQVHLSILATTDIHANMMDYDYYSDKETADFGLARTAQLIQKHREQNPNTLLVDNGDLIQGNPLGEYAVKYQKDDIISGTKTHPIISVMNALKYDAGTLGNHEFNYGLDFLDGTIKGADFPIVNANVKTTSGENRYTPYVINEKTLIDENGNEQKVKVGYIGFVPPQIMTWDKKNLEGQVQVQDIVESANETIPKMKAEGADVIIALAHTGIEKQAQSSGAENAVFDLATKTKGIDAIISGHQHGLFPSAEYAGVAQFNVEKGTINGIPVVMPSSWGKYLGVIDLKLEKADGSWKVADSKGSIESIAGNVTSRNETVTNTIQQTHQNTLEYVRK
6. VSRSRKEEERQEQSARLLSKLRRFDDLDRNWPIKILIQGLRFPIRSEQRLTEYFGCSNSYEISLRDIMNFLITDYEKIPLDLYEVCPAYKQKQIGRKTYSAIVNHLSEQGLGSTFRCEWNMRLKKLIRFMEKGWEYIPDSFRQYEYRA
7. MNQELKLRPLEREDLKFVHELNNNAHIMSYWFEEPYEAFVELQDLYDKHIHDQSERRFIVEKDNEMVGLVELVEIDYIHRRTEFQIIIDPNYQGYGYAVEATRLAMDYAFAVLNMHKIYLVVDKENEKAVHVYKKVGFMVEGELIDEFFVDGNYHNAIRMCMFQKQYFENK

A)
1. not soluble
2. soluble
3. soluble
4. soluble
5. soluble
6. soluble
7. not soluble

Each of the following entries comes with a recorded value; kindly state soluble on expression in E. coli for each.
1. MAHHHHHHMHDRIFAFAQQKVGLTAEQAECLSRKYWLNYGLSLYGYVKEYNVDAKEYSDFVHQCSYDKLHYNKPLIDMLLIMQYAPEAARGHDGPRSTNIDHLYYFTNANHSHARNVLDAQGLRPIFTRPRPVGLPVKENHPASEQAGAEDQVEWLGFSYEDQWQLTHPEIANKPMRQAYEAIYKAIEDQVAEDAALVATTTTAGSGSAFASSSASRNSDIAEEVKNKRARLRPENFVMVDDSLMNIDAPLELGWSAVWYAHDTQELPTDVKDNASAPLYAAAVASGRLQVIRNILELRAAVERIREVNSRSASS
2. MFSSAVRALCRTVPTVATRQLSTSRALLSLRPLGPKNTVPAFKGTAVVDGDFKVISDQDYKGKWLVMFFYPLDFTFVCPTEIIAYGDRANEFRSLGAEVVACSCDSHFSHLAWVNTPRKDGGLGDMDIPLLADFNKKIADSFGVLDKESGLSYRGLFLIDPSGTVRHTTCNDLPVGRSVDETLRVLKAFQFSDKHGEVCPADWHEDSPTIKPGVATSKEYFNKVNK

A)
1. not soluble
2. not soluble
